Cited source for all entries: patent US4477659A

# experimental-details: Absorption test, oral, rats, solution in buffer pH 7 (Example 16)
# Type: in vivo, Male Wistar rats
# run-conditions: blood, 0.5 hr., 50 mg/kg oral, rat, average of 6, read-out: Blood Concentration of the Compound
parameter-measured: concentration at 0.5 h (ng/mL)

{"given-smiles": "N[C@@H](Cc1c[nH]c(SCC(=O)N[C@@H]2C(=O)N3C(C(=O)O)=C(Cl)CS[C@H]23)n1)C(=O)O", "unit-name": "ng/mL", "recorded-number": 7400}
{"given-smiles": "Cc1nnc(SCC2=C(C(=O)O)N3C(=O)[C@@H](NC(=O)CSc4nc(C[C@H](N)C(=O)O)c[nH]4)[C@H]3SC2)s1", "unit-name": "ng/mL", "recorded-number": 11300}
{"given-smiles": "COC1=C(C(=O)O)N2C(=O)[C@@H](NC(=O)CSc3nc(C[C@H](N)C(=O)O)c[nH]3)[C@H]2SC1", "unit-name": "ng/mL", "recorded-number": 8400}
{"given-smiles": "N[C@@H](Cc1c[nH]c(SCC(=O)N[C@@H]2C(=O)N3C(C(=O)O)=C(CSc4cnn[nH]4)CS[C@H]23)n1)C(=O)O", "unit-name": "ng/mL", "recorded-number": 12400}
{"given-smiles": "N[C@@H](Cc1c[nH]c(SCC(=O)N[C@@H]2C(=O)N3C(C(=O)O)=CCS[C@H]23)n1)C(=O)O", "unit-name": "ng/mL", "recorded-number": 8300}

* * *

# experimental-details: Absorption test, oral, rats, solution in buffer pH 7 (Example 16)
# Type: in vivo, Male Wistar rats
# run-conditions: blood, 4 hrs., 50 mg/kg oral, rat, average of 6, read-out: Blood Concentration of the Compound
Reported log10(concentration at 4 h) values follow for various compounds
parameter-measured: log10(concentration at 4 h) (log10 of the value in ng/mL)

{"given-smiles": "Cc1nnc(SCC2=C(C(=O)O)N3C(=O)[C@@H](NC(=O)CSc4nc(C[C@H](N)C(=O)O)c[nH]4)[C@H]3SC2)s1", "log10(concentration at 4 h)": 3.97}
{"given-smiles": "Cn1nnnc1SCC1=C(C(=O)O)N2C(=O)[C@@H](NC(=O)CSc3nc(C[C@H](N)C(=O)O)c[nH]3)[C@H]2SC1", "log10(concentration at 4 h)": 3.00}
{"given-smiles": "COC1=C(C(=O)O)N2C(=O)[C@@H](NC(=O)CSc3nc(C[C@H](N)C(=O)O)c[nH]3)[C@H]2SC1", "log10(concentration at 4 h)": 3.04}
{"given-smiles": "N[C@@H](Cc1c[nH]c(SCC(=O)N[C@@H]2C(=O)N3C(C(=O)O)=CCS[C@H]23)n1)C(=O)O", "log10(concentration at 4 h)": 3.26}
{"given-smiles": "N[C@@H](Cc1c[nH]c(SCC(=O)N[C@@H]2C(=O)N3C(C(=O)O)=C(CSc4nc[nH]n4)CS[C@H]23)n1)C(=O)O", "log10(concentration at 4 h)": 2.00}
{"given-smiles": "Cc1nnc(SCC2=C(C(=O)O)N3C(=O)[C@@H](NC(=O)CSc4nc(C[C@H](N)C(=O)O)c[nH]4)[C@H]3SC2)o1", "log10(concentration at 4 h)": 3.00}
{"given-smiles": "CC(=O)OCC1=C(C(=O)O)N2C(=O)[C@@H](NC(=O)CSc3nc(C[C@H](N)C(=O)O)c[nH]3)[C@H]2SC1", "log10(concentration at 4 h)": 2.70}
